# METHOD_DESCRIPTION: Pharmacokinetics of the combination with rifampicin and pyrazinamide in mice
# CONDITION_DETAILS: mouse, in vivo, po, Tmax, given together without (I): RIF 20.0 + PYR 150.0 mg/kg
EXPERIMENTAL_READOUT: Tmax (h)

compound="NC(=O)c1cnccn1 [PYR, Pyrazinamide]" measurement=1.5
compound=CO[C@H]1/C=C/O[C@@]2(C)Oc3c(C)c(O)c4c(O)c(c(/C=N/N5CCN(C)CC5)c(O)c4c3C2=O)NC(=O)/C(C)=C\C=C\[C@H](C)[C@H](O)[C@@H](C)[C@@H](O)[C@@H](C)[C@H](OC(C)=O)[C@@H]1C measurement=2.3

----------
# METHOD_DESCRIPTION: Preliminary pharmacokinetics of compound of formula (I) in dog
# CONDITION_DETAILS: serum, po, 12.5 mg
EXPERIMENTAL_READOUT: AUC(0-t) (ng·h/mL)

smiles_representation=Cc1c(CN2CCN(c3cccc(C(F)(F)F)c3)CC2)cc(-c2ccccc2)n1NC(=O)c1ccncc1 experimental_readout=AUC(0-t) measurement=10600

----------
# METHOD_DESCRIPTION: in vivo
# CONDITION_DETAILS: mouse, po, 25 mg/kg
EXPERIMENTAL_READOUT: AUC (ng·h/mL)

smiles_representation=Cc1c(CN2CCN(c3cccc(C(F)(F)F)c3)CC2)cc(-c2ccccc2)n1NC(=O)c1ccncc1 measurement=6880

----------
# METHOD_DESCRIPTION: Pharmacokinetics of the combination with rifampicin and pyrazinamide in mice
# CONDITION_DETAILS: mouse, in vivo, po, 12.5 mg/kg, T½, (I) alone 12.5 mg/kg
EXPERIMENTAL_READOUT: half-life (h)

compound="Cc1c(CN2CCN(c3cccc(C(F)(F)F)c3)CC2)cc(-c2ccccc2)n1NC(=O)c1ccncc1 [Compound of formula (I)]" experimental_readout=half-life measurement=5.34

----------
# METHOD_DESCRIPTION: Acute toxicity by oral route in rats
# CONDITION_DETAILS: rat, in vivo
EXPERIMENTAL_READOUT: LD50 (mg/kg)

molecule="Cc1c(CN2CCN(c3cccc(C(F)(F)F)c3)CC2)cc(-c2ccccc2)n1NC(=O)c1ccncc1 [Compound of formula (I)]" experimental_readout=LD50 units=mg/kg measurement=793

----------
# METHOD_DESCRIPTION: Preliminary pharmacokinetics of compound of formula (I) in mice
# CONDITION_DETAILS: mouse, in vivo, po, 25 mg
EXPERIMENTAL_READOUT: Tmax

compound="Cc1c(CN2CCN(c3cccc(C(F)(F)F)c3)CC2)cc(-c2ccccc2)n1NC(=O)c1ccncc1 [Compound of formula (I)]" experimental_readout=Tmax measurement="2 h"

----------
# METHOD_DESCRIPTION: Preliminary pharmacokinetics of compound of formula (I) in dog
# CONDITION_DETAILS: serum, iv, 12.5 mg
EXPERIMENTAL_READOUT: Tmax (h)

molecule="Cc1c(CN2CCN(c3cccc(C(F)(F)F)c3)CC2)cc(-c2ccccc2)n1NC(=O)c1ccncc1 [Compound of formula (I)]" experimental_readout=Tmax measurement=3.48

----------
# METHOD_DESCRIPTION: Pharmacokinetics of the combination with rifampicin and pyrazinamide in mice
# CONDITION_DETAILS: mouse, in vivo, po, 12.5 mg/kg, Tmax, (I) alone 12.5 mg/kg
EXPERIMENTAL_READOUT: Tmax (h)

smiles_representation=Cc1c(CN2CCN(c3cccc(C(F)(F)F)c3)CC2)cc(-c2ccccc2)n1NC(=O)c1ccncc1 units=h measurement=1.5

----------
# METHOD_DESCRIPTION: Pharmacokinetics of the combination with rifampicin and pyrazinamide in mice
# CONDITION_DETAILS: mouse, in vivo, po, AUC, given together without (I): RIF 20.0 + PYR 150.0 mg/kg
EXPERIMENTAL_READOUT: AUC (µg·h/mL)

compound=CO[C@H]1/C=C/O[C@@]2(C)Oc3c(C)c(O)c4c(O)c(c(/C=N/N5CCN(C)CC5)c(O)c4c3C2=O)NC(=O)/C(C)=C\C=C\[C@H](C)[C@H](O)[C@@H](C)[C@@H](O)[C@@H](C)[C@H](OC(C)=O)[C@@H]1C experimental_readout=AUC units=µg·h/mL measurement=148
compound="NC(=O)c1cnccn1 [PYR, Pyrazinamide]" experimental_readout=AUC units=µg·h/mL measurement=649

----------
# METHOD_DESCRIPTION: Preliminary pharmacokinetics of compound of formula (I) in mice
# CONDITION_DETAILS: mouse, in vivo; Mice, 12.5 mg (Oral); read-out: Cmax
EXPERIMENTAL_READOUT: Cmax (ng/mL)

smiles_representation=Cc1c(CN2CCN(c3cccc(C(F)(F)F)c3)CC2)cc(-c2ccccc2)n1NC(=O)c1ccncc1 measurement=660

----------
# METHOD_DESCRIPTION: Preliminary pharmacokinetics of compound of formula (I) in mice
# CONDITION_DETAILS: mouse, in vivo; Mice, 12.5 mg (Oral); read-out: Tmax
EXPERIMENTAL_READOUT: Tmax

smiles_representation=Cc1c(CN2CCN(c3cccc(C(F)(F)F)c3)CC2)cc(-c2ccccc2)n1NC(=O)c1ccncc1 measurement="1.5 h"

----------
# METHOD_DESCRIPTION: Preliminary pharmacokinetics of compound of formula (I) in mice
# CONDITION_DETAILS: mouse, in vivo, po, 25 mg
EXPERIMENTAL_READOUT: AUC(0-t) (µg·h/mL)

smiles_representation=Cc1c(CN2CCN(c3cccc(C(F)(F)F)c3)CC2)cc(-c2ccccc2)n1NC(=O)c1ccncc1 experimental_readout=AUC(0-t) measurement=6.88

----------
# METHOD_DESCRIPTION: in vivo
# CONDITION_DETAILS: mouse, po, 25 mg/kg
EXPERIMENTAL_READOUT: Tmax (h)

smiles_representation=Cc1c(CN2CCN(c3cccc(C(F)(F)F)c3)CC2)cc(-c2ccccc2)n1NC(=O)c1ccncc1 measurement=2

----------
# METHOD_DESCRIPTION: Pharmacokinetics of the combination with rifampicin and pyrazinamide in mice
# CONDITION_DETAILS: mouse, in vivo, po, AUC, given together: (I) 12.5 + RIF 20.0 + PYR 150.0 mg/kg
Listed here are molecules together with their documented AUC.
EXPERIMENTAL_READOUT: AUC (µg·h/mL)

molecule="NC(=O)c1cnccn1 [PYR, Pyrazinamide]" measurement=477
molecule=Cc1c(CN2CCN(c3cccc(C(F)(F)F)c3)CC2)cc(-c2ccccc2)n1NC(=O)c1ccncc1 measurement=36.5
molecule=CO[C@H]1/C=C/O[C@@]2(C)Oc3c(C)c(O)c4c(O)c(c(/C=N/N5CCN(C)CC5)c(O)c4c3C2=O)NC(=O)/C(C)=C\C=C\[C@H](C)[C@H](O)[C@@H](C)[C@@H](O)[C@@H](C)[C@H](OC(C)=O)[C@@H]1C measurement=195

----------
# METHOD_DESCRIPTION: Preliminary pharmacokinetics of compound of formula (I) in dog
# CONDITION_DETAILS: serum, iv, 12.5 mg
EXPERIMENTAL_READOUT: Cmax (ng/mL)

smiles_representation=Cc1c(CN2CCN(c3cccc(C(F)(F)F)c3)CC2)cc(-c2ccccc2)n1NC(=O)c1ccncc1 units=ng/mL measurement=8650

----------
# METHOD_DESCRIPTION: Preliminary pharmacokinetics of compound of formula (I) in dog
# CONDITION_DETAILS: serum, po, 12.5 mg
EXPERIMENTAL_READOUT: Cmax (ng/mL)

smiles_representation=Cc1c(CN2CCN(c3cccc(C(F)(F)F)c3)CC2)cc(-c2ccccc2)n1NC(=O)c1ccncc1 experimental_readout=Cmax units=ng/mL measurement=3380

----------
Listed here are molecules together with their documented half-life.
# METHOD_DESCRIPTION: Pharmacokinetics of the combination with rifampicin and pyrazinamide in mice
# CONDITION_DETAILS: mouse, in vivo, po, T½, given together: (I) 12.5 + RIF 20.0 + PYR 150.0 mg/kg
EXPERIMENTAL_READOUT: half-life

molecule="NC(=O)c1cnccn1 [PYR, Pyrazinamide]" measurement="2.05 h"
molecule=Cc1c(CN2CCN(c3cccc(C(F)(F)F)c3)CC2)cc(-c2ccccc2)n1NC(=O)c1ccncc1 measurement="6.73 h"

----------
Listed here are compounds together with their documented Cmax.
# METHOD_DESCRIPTION: Pharmacokinetics of the combination with rifampicin and pyrazinamide in mice
# CONDITION_DETAILS: mouse, in vivo, po, Cmax, given together: (I) 12.5 + RIF 20.0 + PYR 150.0 mg/kg
EXPERIMENTAL_READOUT: Cmax (ng/mL)

compound=Cc1c(CN2CCN(c3cccc(C(F)(F)F)c3)CC2)cc(-c2ccccc2)n1NC(=O)c1ccncc1 measurement=7580
compound=CO[C@H]1/C=C/O[C@@]2(C)Oc3c(C)c(O)c4c(O)c(c(/C=N/N5CCN(C)CC5)c(O)c4c3C2=O)NC(=O)/C(C)=C\C=C\[C@H](C)[C@H](O)[C@@H](C)[C@@H](O)[C@@H](C)[C@H](OC(C)=O)[C@@H]1C measurement=19300
compound="NC(=O)c1cnccn1 [PYR, Pyrazinamide]" measurement=146000

Value source: patent US7491721B2
